assay: Solubility check of 20 wt % solutions in organic solvents; format: physicochemical; parameters: key: A: the compound dissolves at room temperature; B: the compound does not dissolve at room temperature but dissolves when heated to 60° C.; the compound does not dissolve even when heated to 60° C; conditions: 20 wt % solution in methyl ethyl ketone (MEK); room temperature or heated to 60° C.
endpoint_name: Results of Solubility MEK

Example entries and their recorded answers appear below.
[
  {
    "compound": "C=CC(=O)OCCOCCOc1ccc(OC(=O)C2CCC(C(=O)Oc3ccc(OC(=O)C4CCC(C(=O)Oc5ccc(OCCOCCOC(=O)C=C)cc5)CC4)c4sc(-c5cc6c(C)cc(C)cc6o5)nc34)CC2)cc1 (stereo not drawn) [Compound I-13]",
    "Results of Solubility MEK": "C"
  },
  {
    "compound": "C=CC(=O)OCCOCCOCCOc1ccc(OC(=O)C2CCC(C(=O)Oc3ccc(C4CCC(CCC)CC4)cc3/C=N/N(CCCCCC)c3nc4ccccc4s3)CC2)cc1 (stereo not drawn) [Compound I-3]",
    "Results of Solubility MEK": "C"
  },
  {
    "compound": "C=CC(=O)OCCOCCOCCOc1ccc(OC(=O)C2CCC(C(=O)Oc3ccc(C4CCC(CCC)CC4)cc3/C=N/Nc3nc4ccccc4s3)CC2)cc1 (stereo not drawn) [Compound I-2]",
    "Results of Solubility MEK": "A"
  },
  {
    "compound": "C=CC(=O)OCCCOc1ccc(OC(=O)C2CCC(COc3ccc(OCC4CCC(C(=O)Oc5ccc(OCCCOC(=O)C=C)cc5)CC4)c(/C=N/N(CCOCCOC)c4nc5ccccc5s4)c3)CC2)cc1 (stereo not drawn) [Compound I-8]",
    "Results of Solubility MEK": "B"
  },
  {
    "compound": "C=CC(=O)OCCCCCCOc1ccc(OC(=O)C2CCC(C(=O)Oc3ccc(OC(=O)C4CCC(C(=O)Oc5ccc(OCCCCCCOC(=O)C=C)cc5)CC4)c(/C=N/N(COCCOC)c4nc5ccccc5s4)c3)CC2)cc1 (stereo not drawn) [Compound R-1, reference compound]",
    "Results of Solubility MEK": "C"
  }
]

Find the recorded Results of Solubility MEK belonging to C=CC(=O)OCCCOC(=O)C1CCC(C(=O)OC2CCC(C(=O)Oc3ccc(OC(=O)C4CCC(OC(=O)C5CCC(C(=O)OCCCOC(=O)C=C)CC5)CC4)c4c3SC(=C3C(=O)N(c5ccccc5)N=C3C(=O)OCC)S4)CC2)CC1 (stereo not drawn) [Compound R-3, reference compound] and report it.
C

Would you mind doing C=CC(=O)OCCOCCOCCOc1ccc(OC(=O)C2CCC(COc3ccc(OCC4CCC(C(=O)Oc5ccc(OCCOCCOCCOC(=O)C=C)cc5)CC4)c(/C=N/N(CCCCCC)c4nc5ccccc5s4)c3)CC2)cc1 (stereo not drawn) [Compound I-5] as well?
B

Would you mind doing C=CC(=O)OCCCCOC(=O)C1CCC(C(=O)OC2CCC(C(=O)Oc3ccc(OC(=O)C4CCC(OC(=O)C5CCC(C(=O)OCCCCOC(=O)C=C)CC5)CC4)c4c3SC(=C(C#N)C(=O)OCCOCCOC(=O)C=C)S4)CC2)CC1 (stereo not drawn) [Compound I-15] as well?
B

Would you mind doing C=CC(=O)OCCOCCOC(=O)C1CCC(C(=O)OC2CCC(C(=O)Oc3ccc(OC(=O)C4CCC(OC(=O)C5CCC(C(=O)OCCOCCOC(=O)C=C)CC5)CC4)c4c3SC(=C3C(=O)N(c5ccccc5)N=C3C(=O)OCC)S4)CC2)CC1 (stereo not drawn) [Compound I-14] as well?
B
